Origin of values: PubChem BioAssay (NCI)

In this section, each of the compounds is paired with its reported GI50.
- System: NCI-H226 lung
- assay.summary: NCI tumour cell line growth inhibition, 48 h

See these solved cases before continuing.
In [3]: df
Out[3]:
                                   compound  endpoint_name  observed_result
0   O=C1c2ccccc2-c2c1c1c(O)cccc1n2Cc1ccccc1           GI50      > 100000 nM
1  CN(C)c1ccc(/C=N/N=C(\C#N)[S][Sn]([Cl])([c]2ccccc2)[c]2ccccc2)cc1           GI50          1820 nM
2  Cn1cc(-c2ccc3c(c2)ncn3-c2cc(NS(=O)(=O)C3CC3)cc(-c3ccc(F)cc3F)c2)cn1           GI50         27000 nM
3  N#CC1=C(N)Oc2c(ccc3ccccc23)C1c1cc2ccccc2n2nnnc12 (configuration not stated)           GI50          3080 nM

Task: # query: GI50 of entry COc1cc(NC(=O)COc2ccccc2)c(C(N)=O)cc1OC
Result: 42800 nM

Task: And for O=C(O)CSc1cc(NS(=O)(=O)c2ccc(Br)cc2)c2ccccc2c1O ?
Result: 20100 nM
